Data provenance: ChEMBL document CHEMBL1149652

Recorded IC50 by entry
Test system: A549
test_details: Cytotoxicity against human A549 cells assessed as cell viability after 48 hrs
Assay type: functional, cell-based
measurement_context: A549, 48 h
property_measured: IC50

>>> observed_measurement("C=C(C)[C@@H]1CC[C@]2(CO)CC[C@]3(C)[C@H](CC[C@@H]4[C@@]5(C)CC[C@H](O[C@@H]6O[C@H](CO)[C@H](O)[C@H](O)[C@H]6O)C(C)(C)[C@@H]5CC[C@]43C)[C@@H]12")
"> 75 µM"
>>> observed_measurement("CC1(C)CC[C@]23CC[C@]4(C)[C@H](CC[C@@H]5[C@@]6(C)CC[C@H](O[C@H]7O[C@H](CO)[C@@H](O)[C@H](O)[C@@H]7O)C(C)(C)[C@@H]6CC[C@]54C)[C@H]2[C@@H]1OC3=O")
"> 75 µM"
>>> observed_measurement("C=C(C)[C@@H]1CC[C@]2(CO)CC[C@]3(C)[C@H](CC[C@@H]4[C@@]5(C)CC[C@H](O[C@H]6O[C@H](CO)[C@@H](O)[C@H](O)[C@@H]6O)C(C)(C)[C@@H]5CC[C@]43C)[C@@H]12")
"7.3 µM"
>>> observed_measurement("C=C(C)[C@@H]1CC[C@]2(C(=O)O)CC[C@]3(C)[C@H](CC[C@@H]4[C@@]5(C)CC[C@H](O[C@@H]6O[C@H](CO)[C@H](O)[C@H](O)[C@H]6O)C(C)(C)[C@@H]5CC[C@]43C)[C@@H]12")
"> 75 µM"
>>> observed_measurement("CC1(C)CC[C@]23CC[C@]4(C)[C@H](CC[C@@H]5[C@@]6(C)CC[C@H](O)C(C)(C)[C@@H]6CC[C@]54C)[C@H]2[C@H]1OC3=O")
"> 75 µM"
>>> observed_measurement("C[C@@H]1O[C@H](O[C@H]2CC[C@]3(C)[C@H]4CC[C@@H]5[C@H]6[C@@H]7OC[C@@]6(CCC7(C)C)CC[C@@]5(C)[C@]4(C)CC[C@H]3C2(C)C)[C@@H](O)[C@@H](O)[C@@H]1O")
"> 75 µM"
>>> observed_measurement("CC1(C)CC[C@]23CC[C@]4(C)[C@H](CC[C@@H]5[C@@]6(C)CC[C@H](O[C@@H]7OC[C@@H](O)[C@H](O)[C@H]7O)C(C)(C)[C@@H]6CC[C@]54C)[C@H]2[C@@H]1OC3")
"> 75 µM"
>>> observed_measurement("C=C(C)[C@@H]1CC[C@]2(C(=O)O)CC[C@]3(C)[C@H](CC[C@@H]4[C@@]5(C)CC[C@H](O[C@H]6O[C@H](CO)[C@@H](O)[C@H](O)[C@@H]6O)C(C)(C)[C@@H]5CC[C@]43C)[C@@H]12")
"34 µM"
>>> observed_measurement("C=C(C)[C@@H]1CC[C@]2(CO)CC[C@]3(C)[C@H](CC[C@@H]4[C@@]5(C)CC[C@H](O[C@@H]6OC[C@@H](O)[C@H](O)[C@H]6O)C(C)(C)[C@@H]5CC[C@]43C)[C@@H]12")
"> 75 µM"
>>> observed_measurement("CC1(C)CC[C@]23CC[C@]4(C)[C@H](CC[C@@H]5[C@@]6(C)CC[C@H](O[C@H]7OC[C@H](O)[C@H](O)[C@H]7O)C(C)(C)[C@@H]6CC[C@]54C)[C@H]2[C@@H]1OC3=O")
"> 75 µM"
